Taken from the supplement of paper PMC9732359.

assay: protein stability index of a GFP-peptide fusion (yeast GPS) (PSI 1-4); higher = more stable; sorted into four equal gates, so the index is relative within each strain; details: pdr5∆
# cutoff 3 applies to protein stability index; >= gives YES, < gives NO

[[record]]
sequence_content = "TDEALFENVKLLAEYDN [MED4]"
class = "YES"

[[record]]
sequence_content = "SPRFNVKIGDIEKWTAN [RPS22A]"
class = "YES"

[[record]]
sequence_content = "NNAKLLTFMTCNSLHIP [ESC2]"
class = "NO"

[[record]]
sequence_content = "ATDLAGPANNPNEFMQF [PRP8]"
class = "YES"

[[record]]
sequence_content = "PKVKEIKTVVLVPQLGH [PRP8]"
class = "NO"

[[record]]
sequence_content = "AALGEVASMELKPTNDM [SIR2]"
class = "YES"


INPUT: Determine whether measured protein stability index meets or exceeds 3 for TKESQPTIEEDLTRVYK [FAS2]
OUTPUT: YES

INPUT: State whether the measured protein stability index reaches 3, counting equality as reaching it, for HVKRITKIAQSQTMAET [ECM29]
OUTPUT: NO

INPUT: Given SLILKESGSTPISISNA [YAR002W/NUP60] , state whether its protein stability index is at least 3.
OUTPUT: NO
